- Assay comment: NCI Yeast Anticancer Drug Screen. Data for the bub3 strain (AID 167)
- Experimental parameters: S. cerevisiae bub3 mutant strain; at 50.0 µM unless noted
About 79,000 compounds went through this panel and 15% of them were active in at least one assay; those are over-represented in the sample as a whole. Activity calls are given as the source filed them. Rule as the data show it: active = growth inhibition above about 70%; inactive = the rest. Where a SMILES comes first, the peptide text is derived from it. [ ]: non-standard residue; d: D form. The star is where a group is joined. ξ: configuration not given here. Cbz = O=C(OCc1ccccc1)*; ξK = NCCCCC(N)C(=O)O
Return exactly one item of 1.0 = active, 0.0 = inactive

Qu. Just curious, what result did CC(=O)OC1OC(COC(c2ccccc2)(c2ccccc2)c2ccccc2)C(OC(C)=O)C(OC(C)=O)C1OC(C)=O (configuration not stated) get here?
Ans. 0.0

Qu. Which outcome did this test record for the compound CCOC(=O)c1sc(SC)nc1NC(=O)c1ccccc1 ?
Ans. 0.0

Qu. Each compound tested received a call. Report the one for COc1cc(/C=N/NC(=O)c2ccccc2NC(=O)c2ccccc2)ccc1O .
Ans. 0.0

Qu. Recorded call for CCOC(=O)c1cc2c(-c3ccccc3)c(-c3ccccc3)c(-c3ccccc3)c(-c3ccccc3)n2n1 ?
Ans. 0.0

Qu. Entry CC(=O)NNS(=O)(=O)c1ccccc1 : call = ?
Ans. 0.0

Qu. Check the results log: what was the call for CCOC(=O)[C@]12C3C=CC(C3)C1C(=O)C1OC12 (some centres not stated) ?
Ans. 0.0

Qu. Could you kindly confirm the outcome this assay logged for Cc1ccccc1C(=O)C[n+]1ccccc1C ?
Ans. 0.0

Qu. // outcome(item) with item = CC12C(=O)C(C(c3ccccc3)=C1c1ccccc1)C1C(=O)OC(=O)C12 (configuration not stated)
Ans. 0.0

Qu. // outcome(item) with item = CCO/C=C(\C)CC1([N+](=O)[O-])C(=O)c2ccccc2C1=O
Ans. 0.0

Qu. What is the recorded call for this compound in the test? Cc1ccc(OS(=O)(=O)c2cccc(S(=O)(=O)Oc3ccc(C)cc3)c2)cc1
Ans. 0.0

Qu. Which outcome did this test record for the compound CC(O)CNc1nc(N)[nH]c(=O)c1[N+](=O)[O-] (configuration not stated) ?
Ans. 0.0

Qu. Call for entry C1=NC(c2ccccc2)=CN(C2CCCCCCCCCCC2)C1(c1ccccc1)C1CCCCCCCCCCC1 (configuration not stated) :
Ans. 0.0

Qu. Would you mind telling me which call this test gave CC1(C)N=C(Oc2cc(Cl)cc(Cl)c2)NC(=S)N1 ?
Ans. 0.0

Qu. Dear all, I need the recorded test outcome for CCN(CC)CCN=Cc1ccccc1OC , thank you.
Ans. 0.0

Qu. Kindly provide the recorded test outcome for the following compound: CN(C(=O)Cc1ccccc1)n1cn[n+](CC(=O)OC(C)(C)C)c1
Ans. 0.0

Qu. So what was the verdict on Cc1ccc(-c2c(C#N)c(O)n(NS(=O)(=O)c3ccccc3)c(=O)c2C#N)cc1 in this test?
Ans. 0.0

Qu. Record request — test call for C/C(=N\O)C(=O)c1ccc(C)cc1
Ans. 0.0

Qu. Assay result, entry CCCC(=O)N(CCC(C)C)c1ccccc1 — outcome?
Ans. 0.0

Qu. Which outcome did this test record for the compound CCCCCCCCCC(=O)N1CCCC(C)C1 (configuration not stated) ?
Ans. 1.0

Qu. Record request — test call for CCCSCCC(NC(=O)c1ccccc1)C(=O)O (configuration not stated)
Ans. 0.0

Qu. # fetch the recorded call for OC1(c2nccc3ccccc23)CCN(CCc2ccccc2)CC1 here
Ans. 0.0

Qu. Assay outcome for CCOC(=O)CN=C1Nc2ccccc2C(=O)N2CSCC12 (configuration not stated) : what was it?
Ans. 0.0

Qu. Record lookup: outcome of this test for CN(C)C1=C(Cl)C(=O)C(=O)c2cccnc21 ?
Ans. 0.0

Qu. Check the results log: what was the call for CC(C)=CC1C(C(=O)Oc2ccccc2C(C)C)C1(C)C (configuration not stated) ?
Ans. 0.0

Qu. Kindly provide the recorded test outcome for the following compound: CCCCCCCCCC(=O)N=C(C(N)=O)C(N)=O
Ans. 0.0

Qu. Record request — test call for N#CCSc1ncnc2nc[nH]c12
Ans. 0.0

Qu. Call for entry Cc1ccc(S(=O)(=O)C2OC(CO)C(O)C(O)C2O)cc1 (configuration not stated) :
Ans. 0.0

Qu. Would you mind telling me which call this test gave CCCCC(C#N)C(=O)NC(N)=O (configuration not stated) ?
Ans. 0.0

Qu. State the result this test recorded for CS(=O)(=O)c1ccc(/C(=N/N)c2ccccc2)cc1 .
Ans. 0.0

Qu. Assay result, entry CCCCCCCCCCCCC — outcome?
Ans. 0.0

Qu. Identify the outcome logged in this assay for the compound shown: CC(=O)OC1=C2OC(=O)C3(C2C=CC=C1)C1C=CC=CC13 (configuration not stated)
Ans. 0.0

Qu. Which outcome did this test record for the compound CC1(C)CC[C@]2(C(=O)O)CCC3(C)C(=CCC4[C@@]5(C)CC[C@H](OC6OCC(O)C(O)C6OC6OC(CO)C(O)C(O)C6O)C(C)(C)C5CC[C@]43C)C2C1 (some centres not stated) ?
Ans. 1.0

Qu. # outcome recorded in this test, key = O=C(O)C1C2CC=CCC21 (configuration not stated)
Ans. 0.0

Qu. How was NCC(=O)NC(CCCCNC(=O)OCc1ccccc1)C(=O)O (configuration not stated) (H-Gly-[ξK](Cbz)-OH) classified in this test?
Ans. 0.0

Qu. Write down the call the test reported for this compound. Item: NC(=O)C(=CN1C(=O)CC(=O)NC1=S)C(N)=O
Ans. 0.0

Qu. What was the test verdict on CC(C)N1C(=O)N(Cl)C2C1N(Cl)C(=O)N2Cl (configuration not stated) ?
Ans. 0.0

Qu. Outcome logged for O=CC(O)C(O)C(O)C(O)C(O)C(O)CO (configuration not stated) in this assay:
Ans. 0.0

Qu. Hi, do you know how COc1ccc2c(c1)CCN1CCCc3ccccc3C21 (configuration not stated) came out in this test?
Ans. 0.0

Qu. Hi team, can someone confirm the assay call for CC(=O)Nc1cc([N+](=O)[O-])cc([N+](=O)[O-])c1O ?
Ans. 0.0

Qu. Which outcome was entered for the compound COc1ccc(C(NC(N)=O)c2cc3c(cc2OC(C)=O)OCO3)cc1 (configuration not stated) in this test?
Ans. 0.0

Qu. // return assay outcome for O=C(O)CC1NC(/C(=C/c2ccccc2O)NC(=O)c2ccccc2)OC1=O (configuration not stated)
Ans. 0.0

Qu. Entry Cc1cccc(C)c1NC(=O)c1c(Cl)c(Cl)c(Cl)c(Cl)c1C(=O)O : call = ?
Ans. 0.0

Qu. Returns: the outcome recorded for CC1=C2CC(C)(C)/C=C\C(=O)/C(C)=C\C3=C[C@H](C)C[C@]3(O2)C1=O in this assay.
Ans. 0.0

Qu. Kindly provide the recorded test outcome for the following compound: COc1ccc(N2C(=O)C/C(=C/c3ccc(C(C)C)cc3)C2=O)cc1
Ans. 0.0

Qu. I would be grateful if you could indicate the recorded call for OC1CSc2nc3ccccc3n2C1 (configuration not stated) .
Ans. 0.0

Qu. Query: recorded result category for O=C(C[n+]1cc(Br)cc2ccccc21)c1ccc(F)cc1 in this test
Ans. 0.0

Qu. Record lookup: outcome of this test for C/C(CC(=O)Nc1cc(C)ccc1C)=N\NC(=O)c1ccncc1 ?
Ans. 0.0
